system: M14; experiment: NCI tumour cell line growth inhibition, 48 h
Active and inactive are the calls of the source. Cut-off read from the data, not from the text of the source: active = GI50 up to about 1.1 µM and inactive = higher.
Can you answer with just one of these options? true (1) (active), false (0) (inactive)

Req: Write down the call the test reported for this compound. Item: Cc1cc2c(O)nc(N)nc2nc1C
Resp: false (0)

Req: Likewise for CCn1c(=O)c2c3cc(O)ccc3oc2c2ccc(O)cc21 ?
Resp: false (0)

Req: // same read-out, input: Cc1cc(OCC(=O)N/N=C/C(Br)=C/c2ccccc2)nc(SCC(=O)N/N=C/C(Br)=C/c2ccccc2)n1
Resp: false (0)

Req: Same lookup for O=C(O)C1(Cc2ccccc2)Cc2cc3c(cc2C1)CCC3 , please.
Resp: false (0)

Req: Try this compound too: CC(=O)C1=C(N=[N+]=[N-])c2cccc3cccc(c23)C1=O
Resp: false (0)

Req: Next compound: NC(CCCCO)C(=O)O (stereo unspecified)
Resp: false (0)

Req: Try the compound C=CCN1C(=O)C(=O)N(CC=C)C(=O)C1=O
Resp: false (0)

Req: Try the compound N=C(N)Cn1cnc2ccccc21
Resp: false (0)

Req: Same question for CC(=O)O[C@H]1C(=O)[C@@]2(C)C(C(OC(=O)c3ccccc3)[C@]3(O)CC(OC(=O)C(O)C(NC(=O)c4ccccc4)c4ccc(F)cc4)C(C)=C1C3(C)C)[C@]1(OC(C)=O)CO[C@@H]1C[C@@H]2O (stereo partly specified) please.
Resp: true (1)

Req: What do we get for Cc1ccn2c(=O)cc(-c3ccccc3)nc2c1 ?
Resp: false (0)

Req: What about CO[C@H](C)[C@](O)(C(=O)OCC1=CCN2CC[C@@H](O)[C@H]12)C(C)C ?
Resp: false (0)

----------
tested on: HOP-92; experiment: NCI tumour cell line growth inhibition, 48 h
Activity calls are given as the source filed them. Rule as the data show it: active = GI50 up to about 1.1 µM and inactive = higher.
Give your call using only these classes: true (1) for active, false (0) for inactive

Req: Called result for Oc1ccc(Oc2cc3c(cc2Oc2ccc(O)cc2)-c2nc-3nc3[nH]c(nc4nc(nc5[nH]c(n2)c2cc(Oc6ccc(O)cc6)c(Oc6ccc(O)cc6)cc52)-c2cc(Oc5ccc(O)cc5)c(Oc5ccc(O)cc5)cc2-4)c2cc(Oc4ccc(O)cc4)c(Oc4ccc(O)cc4)cc32)cc1
Resp: false (0)

Req: Can you handle COC(=O)C(Cc1nc2ccc(Cl)cc2nc1O)/C(=N\N)C(=O)Nc1cc(C)c(Cl)cc1S(=O)(=O)O (centres undefined) next?
Resp: false (0)

Req: What do we get for CC[C@@]1(O)C(=O)OCc2c1cc1n(c2=O)Cc2c-1nc1ccccc1c2/C=N\NC(=O)C1CCCN1 (some centres undefined) ?
Resp: true (1)

Req: Same question for O=c1[nH]c(=O)n(C2CC(O)C(COP(=O)(O)OC3CC(n4cc(F)c(=O)[nH]c4=O)OC3COP(=O)(O)OC3CC(n4cc(F)c(=O)[nH]c4=O)OC3COP(=O)(O)OC3CC(n4cc(F)c(=O)[nH]c4=O)OC3COP(=O)(O)OC3CC(n4cc(F)c(=O)[nH]c4=O)OC3COP(=O)(O)OC3CC(n4cc(F)c(=O)[nH]c4=O)OC3COP(=O)(O)OC3CC(n4cc(F)c(=O)[nH]c4=O)OC3COP(=O)(O)OC3CC(n4cc(F)c(=O)[nH]c4=O)OC3COP(=O)(O)OC3CC(n4cc(F)c(=O)[nH]c4=O)OC3COP(=O)(O)OC3CC(n4cc(F)c(=O)[nH]c4=O)OC3CO)O2)cc1F (centres undefined) please.
Resp: true (1)

The origin of these recorded values is ChEMBL document CHEMBL1201862.
